# Tested on: Plasmodium falciparum TM91C235
# ASSAY_OVERVIEW: In vitro antimalarial [3H]-hypoxanthine incorporation assay, TM91C235
# Format: cell-based
# TEST_SETTINGS: Plasmodium falciparum; P. falciparum TM91C235 (multiple drug resistant isolate), 72 hours exposure
# Method: […] After the preincubation, [^3H]-hypoxanthine was added to each well of the MTP. […] The radioactivity was counted on a Packard TopCount™ microplate scintillation counter. The results were recorded as counts per minutes (CPM) per well at each drug concentration divided by the arithmetic mean of the CPM from the three untreated infection parasite control wells. […]
List of IC50 values.
Give the value, in units of µg/mL, as a plain number.

Observe how each entry below is paired with its result.
>  <SAMPLE_SMILES>
CC[C@H]1OC(=O)[C@H](C)[C@@H](O[C@H]2C[C@@](C)(OC)[C@@H](O)[C@H](C)O2)[C@H](C)[C@@H](O[C@@H]2O[C@H](C)C[C@H](N(C)C)[C@H]2O)[C@](C)(O)C[C@@H](C)CN(CCCNC(=S)Nc2ccc(OC)cc2)[C@H](C)[C@@H](O)[C@]1(C)O.O=CO

>  <MEASUREMENT_TARGET>
Plasmodium falciparum TM91C235

>  <UNITS>
µg/mL

>  <IC50>
0.436

$$$$
>  <SAMPLE_SMILES>
CC[C@H]1OC(=O)[C@H](C)[C@@H](O[C@H]2C[C@@](C)(OC)[C@@H](O)[C@H](C)O2)[C@H](C)[C@@H](O[C@@H]2O[C@H](C)C[C@H](N(C)C)[C@H]2O)[C@](C)(O)C[C@@H](C)CN(CCCNC(=S)Nc2ccc(S(=O)(=O)N3CCCCC3)cc2)[C@H](C)[C@@H](O)[C@]1(C)O

>  <MEASUREMENT_TARGET>
Plasmodium falciparum TM91C235

>  <UNITS>
µg/mL

>  <IC50>
0.0731

$$$$
>  <SAMPLE_SMILES>
CC[C@H]1OC(=O)[C@H](C)[C@@H](O[C@@H]2C[C@@H](C)[C@H](O)[C@](C)(OC)C2)[C@H](O)[C@@H](O[C@@H]2O[C@H](C)C[C@H](N(C)C)[C@H]2O)[C@](C)(O)C[C@@H](C)CN(CCCNC(=O)Nc2ccc(OCc3ccccc3)cc2)[C@H](C)[C@@H](O)[C@]1(C)O

>  <MEASUREMENT_TARGET>
Plasmodium falciparum TM91C235

>  <UNITS>
µg/mL

>  <IC50>
0.148

$$$$
>  <SAMPLE_SMILES>
CC[C@H]1OC(=O)[C@H](C)[C@@H](O[C@H]2C[C@@](C)(OC)[C@@H](O)[C@H](C)O2)[C@H](C)[C@@H](O[C@@H]2O[C@H](C)C[C@H](N(C)C)[C@H]2O)[C@](C)(O)C[C@@H](C)CN(CCCNC(=S)NC(c2ccccc2)(c2ccccc2)c2ccccc2)[C@H](C)[C@@H](O)[C@]1(C)O.O=CO

>  <MEASUREMENT_TARGET>
Plasmodium falciparum TM91C235

>  <UNITS>
µg/mL

>  <IC50>
0.0364

$$$$
>  <SAMPLE_SMILES>
CC[C@H]1OC(=O)[C@H](C)[C@@H](O[C@H]2C[C@@](C)(OC)[C@@H](O)[C@H](C)O2)[C@H](C)[C@@H](O[C@@H]2O[C@H](C)C[C@H](N(C)C)[C@H]2O)[C@](C)(O)C[C@@H](C)CN(CCCNC(=S)Nc2cccc3nsnc23)[C@H](C)[C@@H](O)[C@]1(C)O.O=CO

>  <MEASUREMENT_TARGET>
Plasmodium falciparum TM91C235

>  <UNITS>
µg/mL

>  <IC50>
0.105

$$$$

Problem: Given CC[C@H]1OC(=O)[C@H](C)[C@@H](O[C@H]2C[C@@](C)(OC)[C@@H](O)[C@H](C)O2)[C@H](C)[C@@H](O[C@@H]2O[C@H](C)C[C@H](N(C)C)[C@H]2O)[C@](C)(O)C[C@@H](C)CN(CCCNC(=S)Nc2ccc(OC(F)F)cc2)[C@H](C)[C@@H](O)[C@]1(C)O.O=CO , state its recorded IC50.
Solution: 0.0997

Problem: Fill blank: measured IC50 of the molecule CC[C@H]1OC(=O)[C@H](C)[C@@H](O[C@H]2C[C@@](C)(OC)[C@@H](O)[C@H](C)O2)[C@H](C)[C@@H](O[C@@H]2O[C@H](C)C[C@H](N(C)C)[C@H]2O)[C@](C)(O)C[C@@H](C)CN(CCCNC(=S)NC23CC4CC(CC(C4)C2)C3)[C@H](C)[C@@H](O)[C@]1(C)O is ____.
Solution: 0.15
